Listing: Dmax of selected compounds
assayed target: CBP (Homo sapiens)
Construct: endogenous in cells; host or cells: 22Rv1 (ATCC CRL-2505) human prostate cancer cells
Sequence (Q92793 whole entry): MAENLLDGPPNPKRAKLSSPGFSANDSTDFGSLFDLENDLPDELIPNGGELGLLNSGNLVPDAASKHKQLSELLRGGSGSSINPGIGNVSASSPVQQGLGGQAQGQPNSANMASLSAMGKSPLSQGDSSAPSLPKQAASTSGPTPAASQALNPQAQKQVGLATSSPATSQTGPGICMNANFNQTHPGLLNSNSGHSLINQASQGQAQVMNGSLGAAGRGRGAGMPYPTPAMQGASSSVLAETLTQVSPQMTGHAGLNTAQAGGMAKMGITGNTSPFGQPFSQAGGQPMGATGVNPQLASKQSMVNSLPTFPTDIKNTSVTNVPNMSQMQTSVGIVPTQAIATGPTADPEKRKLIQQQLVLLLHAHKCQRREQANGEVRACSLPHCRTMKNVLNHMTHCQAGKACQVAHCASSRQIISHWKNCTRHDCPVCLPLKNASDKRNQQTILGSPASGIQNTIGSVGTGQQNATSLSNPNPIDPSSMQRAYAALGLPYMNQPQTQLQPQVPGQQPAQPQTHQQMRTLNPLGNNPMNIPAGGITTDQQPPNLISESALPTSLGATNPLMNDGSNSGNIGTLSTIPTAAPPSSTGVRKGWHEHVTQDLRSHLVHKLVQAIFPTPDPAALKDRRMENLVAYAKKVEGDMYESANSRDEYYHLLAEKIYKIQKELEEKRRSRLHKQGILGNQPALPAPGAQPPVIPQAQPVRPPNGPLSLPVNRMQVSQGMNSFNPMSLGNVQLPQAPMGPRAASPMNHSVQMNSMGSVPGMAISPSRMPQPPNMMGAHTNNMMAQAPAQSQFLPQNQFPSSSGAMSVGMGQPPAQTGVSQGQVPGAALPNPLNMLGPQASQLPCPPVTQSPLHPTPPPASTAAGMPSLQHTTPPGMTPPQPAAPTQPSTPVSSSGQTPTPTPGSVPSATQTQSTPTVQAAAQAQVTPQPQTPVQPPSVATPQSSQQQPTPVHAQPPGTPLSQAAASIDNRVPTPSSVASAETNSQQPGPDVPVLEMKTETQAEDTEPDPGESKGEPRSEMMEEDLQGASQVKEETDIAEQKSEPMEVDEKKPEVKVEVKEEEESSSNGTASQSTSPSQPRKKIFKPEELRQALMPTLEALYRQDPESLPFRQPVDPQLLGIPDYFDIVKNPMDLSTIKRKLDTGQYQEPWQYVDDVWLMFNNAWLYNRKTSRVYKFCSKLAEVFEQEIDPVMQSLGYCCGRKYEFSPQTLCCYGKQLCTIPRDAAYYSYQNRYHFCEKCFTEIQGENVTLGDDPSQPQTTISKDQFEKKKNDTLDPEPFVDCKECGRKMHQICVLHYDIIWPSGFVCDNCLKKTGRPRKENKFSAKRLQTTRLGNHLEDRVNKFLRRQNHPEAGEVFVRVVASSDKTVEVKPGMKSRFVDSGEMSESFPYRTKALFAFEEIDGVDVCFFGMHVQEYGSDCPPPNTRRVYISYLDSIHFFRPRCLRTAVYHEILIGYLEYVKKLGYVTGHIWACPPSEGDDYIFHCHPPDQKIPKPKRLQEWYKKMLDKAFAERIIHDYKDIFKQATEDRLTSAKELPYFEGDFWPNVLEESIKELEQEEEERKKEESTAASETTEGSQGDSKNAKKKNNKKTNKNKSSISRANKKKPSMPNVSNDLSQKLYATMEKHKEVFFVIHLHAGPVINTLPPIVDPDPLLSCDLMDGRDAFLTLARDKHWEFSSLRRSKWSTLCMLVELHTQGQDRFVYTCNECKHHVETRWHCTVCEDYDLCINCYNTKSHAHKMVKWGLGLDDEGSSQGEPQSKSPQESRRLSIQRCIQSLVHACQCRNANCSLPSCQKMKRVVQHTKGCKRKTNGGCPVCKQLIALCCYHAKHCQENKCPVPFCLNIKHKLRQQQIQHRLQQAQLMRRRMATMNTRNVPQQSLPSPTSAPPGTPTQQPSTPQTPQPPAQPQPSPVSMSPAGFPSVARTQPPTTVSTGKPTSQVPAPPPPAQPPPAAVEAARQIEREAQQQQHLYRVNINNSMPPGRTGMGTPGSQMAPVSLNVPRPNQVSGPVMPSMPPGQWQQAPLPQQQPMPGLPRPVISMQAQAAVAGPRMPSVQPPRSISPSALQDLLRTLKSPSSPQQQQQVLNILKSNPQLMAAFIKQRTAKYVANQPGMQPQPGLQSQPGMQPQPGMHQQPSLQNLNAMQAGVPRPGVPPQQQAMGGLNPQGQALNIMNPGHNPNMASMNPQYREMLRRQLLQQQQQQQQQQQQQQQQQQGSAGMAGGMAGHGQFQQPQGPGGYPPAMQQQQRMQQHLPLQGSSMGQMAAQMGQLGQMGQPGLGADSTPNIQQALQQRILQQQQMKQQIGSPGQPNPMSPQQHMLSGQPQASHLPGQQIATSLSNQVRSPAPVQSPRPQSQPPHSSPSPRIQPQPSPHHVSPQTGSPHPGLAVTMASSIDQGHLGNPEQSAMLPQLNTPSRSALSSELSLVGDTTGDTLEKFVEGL
assay method text: CBP degradation in 22Rv1 cells (5 h)
Type: cell-based
condition summary: 22Rv1, 5 h, 22Rv1 cells, 5 h; read-out: CBP Degradation (22Rv1, 5 h) DCmax

Examples from the recorded data:
>>> recorded_value("Cn1cc(-c2cc3c(cc2C(F)F)N(c2nn(C4CCN(C(=O)CN5Cc6cc7c(cc6C5)C(=O)N(C5CCC(=O)NC5=O)C7=O)CC4)c4c2CN(C(=O)C2CC2)CC4)CCC3)cn1 (centres unmarked) [CP-054]")
"< 50%"
>>> recorded_value("CC(=O)N1CCc2c(c(N3CCCc4cc(-c5cnn(CCCCN6CCc7cc8c(cc7C6)C(=O)N(C6CCC(=O)NC6=O)C8=O)c5)c(C(F)F)cc43)nn2C2CCOCC2)C1 (centres unmarked) [CP-070]")
"> 70%"
>>> recorded_value("CC(=O)N1CCc2c(c(N3CCCc4cc(-c5cnn(C)c5)c(C(F)F)cc43)nn2C[C@H]2CC[C@@H](C(=O)N3Cc4cc5c(cc4C3)C(=O)N(C3CCC(=O)NC3=O)C5=O)CC2)C1 (some centres unmarked) [CP-031]")
"> 50%"

Sure, the documented Dmax for CC(=O)N1CCc2c(c(N3CCCc4cc(-c5cnn(C)c5)c(C(F)F)cc43)nn2C[C@H]2CC[C@H](C(=O)N3CCc4cc5c(cc4C3)C(=O)N(C3CCC(=O)NC3=O)C5=O)CC2)C1 (some centres unmarked) [CP-030] is < 50%

Sure, the documented Dmax for CC(=O)N1CCc2c(c(N3CCCc4cc(-c5cnn(CCCCCN6CCc7cc8c(cc7C6)C(=O)N(C6CCC(=O)NC6=O)C8=O)c5)c(C(F)F)cc43)nn2C2CCOCC2)C1 (centres unmarked) [CP-069] is > 70%
